The measured values listed here are drawn from patent US20150104459A1.

Catalogue of binders with associated Trimeric HA Binding RLU
- test.system: recombinant soluble homotrimeric HA of A/northern shoveler/California/HKWF115/2007 (H6N1) (Influenza A virus A/northern shoveler/California/HKWF115/2007 (H6N1))
- assay.explanation: HA microarray, BCC supernatant
- particulars: remark: other sources report otherwise

binder | unit.label | Trimeric HA Binding RLU
TCN-530 (5248_H10a) (antibody, V domains shown) VH: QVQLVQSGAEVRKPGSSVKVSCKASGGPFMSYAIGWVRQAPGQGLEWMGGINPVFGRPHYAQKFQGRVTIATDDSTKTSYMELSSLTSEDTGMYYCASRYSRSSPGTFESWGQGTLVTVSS VL: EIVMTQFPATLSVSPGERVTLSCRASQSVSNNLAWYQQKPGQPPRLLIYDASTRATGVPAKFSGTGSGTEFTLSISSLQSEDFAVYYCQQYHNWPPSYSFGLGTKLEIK | RLU | 45300
TCN-555 (5246_L16) (antibody, V domains shown) VH: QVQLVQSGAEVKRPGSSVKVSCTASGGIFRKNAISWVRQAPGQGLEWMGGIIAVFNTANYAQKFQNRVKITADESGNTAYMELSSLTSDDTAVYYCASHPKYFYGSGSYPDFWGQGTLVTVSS VL: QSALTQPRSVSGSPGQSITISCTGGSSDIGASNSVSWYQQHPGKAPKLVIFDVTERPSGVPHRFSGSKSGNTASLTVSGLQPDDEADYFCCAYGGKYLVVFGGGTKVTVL | RLU | 49500
